# test system: UniProt Q96RI1
# test name: FXR EC50 (FXR agonist activity reported with each example)
# Assay type: cell-based
Would you kindly list pEC50 for each of these compounds?
One number for each entry, as −log10 of the molar value.

compound | pEC50
O=C(O)c1cc(F)c2nc(C34CCC(OCc5c(-c6c(Cl)cccc6Cl)noc5C5CC5)(CC3)CC4)sc2c1 | 7.44
CC1(c2noc(C3CC3)c2COC23CCC(c4ccc5c(C(=O)O)cccc5n4)(CC2)CC3)CC1(F)F (stereo not shown) | 5.47
O=C(O)c1cc(C(F)(F)F)cc2nc(C34CCC(OCc5c(-c6c(Cl)cncc6Cl)noc5C5CC5)(CC3)CC4)sc12 | 7.74
COc1ccc(-c2nc(C34CCC(OCc5c(-c6c(Cl)cncc6Cl)noc5C5CC5)(CC3)CC4)co2)cc1C(=O)O | 7.07
CS(=O)(=O)c1cc(C(=O)O)nc2ccc(OCC34CCC(OCc5c(-c6c(Cl)cncc6Cl)noc5C5CC5)(CC3)CC4)cc12 | 6.08
NC(=O)c1cc(C(F)(F)F)cc(C23CCC(COCc4c(-c5c(Cl)cncc5Cl)noc4C4CC4)(CC2)CO3)c1 | 5.85

Then there is this compound:
Looking for the measured pEC50 of "CS(=O)(=O)NC(=O)c1ccc(-c2noc(C34CCC(OCc5c(-c6c(Cl)cccc6Cl)noc5C5CC5)(CC3)CC4)n2)cc1" , can you help?
6.05

----------
# test system: FXR (Homo sapiens (Human))
# Sequence (Q96RI1 262-486): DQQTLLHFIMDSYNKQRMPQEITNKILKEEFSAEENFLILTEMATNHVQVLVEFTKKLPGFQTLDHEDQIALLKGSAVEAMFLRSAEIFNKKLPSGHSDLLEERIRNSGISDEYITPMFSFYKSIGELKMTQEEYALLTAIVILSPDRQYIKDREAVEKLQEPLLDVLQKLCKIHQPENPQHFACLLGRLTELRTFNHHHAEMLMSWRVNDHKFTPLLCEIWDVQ
# test name: FXR EC50 (FXR agonist activity reported with each example)
# Assay type: cell-based
For each entry below, report its pEC50 value.
Numbers only, as −log10 of the molar value.

Look over these answered cases.
molecule | pEC50
O=C(O)Cc1noc(C23CCC(OCc4c(-c5c(Cl)cccc5Cl)noc4C4CC4)(CC2)CC3)n1 [Example 72] | 5.51
O=C(O)c1cc(OCC23CCC(OCc4c(-c5c(Cl)cccc5Cl)noc4C4CC4)(CC2)CC3)ccc1F [Example 93] | 7.49
O=C(O)c1ccc(OCC23CCC(OCc4c(-c5ccccc5C(F)(F)F)noc4C4CC4)(CC2)CC3)c2ncccc12 [Example 305] | 6.98

Batch request: pEC50 per item, same order as input.
1. O=C(O)c1cccc(-c2noc(C34CCC(CNc5c(-c6c(Cl)cccc6Cl)noc5C5CC5)(CC3)CC4)n2)c1 [Example 166]
2. O=C(O)c1cccc(-c2noc(C34CCC(OCc5c(-c6c(Cl)cccc6Cl)noc5C5CC5)(CC3)CO4)n2)c1 [Example 193]
3. COC(=O)c1cccc(NC(=O)C23CCC(C=Cc4c(-c5c(Cl)cccc5Cl)noc4C4CC4)(CC2)CC3)c1 [Example 187]
4. O=C(O)C1(c2noc(C34CCC(OCc5c(-c6c(Cl)cncc6Cl)noc5C5CC5)(CC3)CC4)n2)CC1 [Example 271]
5. CN(Cc1ccccc1C(=O)O)C(=O)C12CCC(OCc3c(-c4c(Cl)cccc4Cl)noc3C3CC3)(CC1)CC2 [Example 144]
6. O=C(O)c1ccc(OCC23CCC(OCc4c(-c5c(Cl)cncc5Cl)noc4C4CC4)(CC2)CC3)c2ncccc12 [Example 302]
7. O=C(O)c1cccc(-c2nc(C34CCC(OCc5c(-c6ccccc6OC(F)(F)F)noc5C5CC5)(CC3)CC4)no2)n1 [Example 61]

[6.24, 7.59, 5.52, 5.96, 6.80, 7.27, 6.08]

For every listed record, write down its pEC50.
1. COC(=O)c1ccc(-c2noc(C34CCC(OCc5c(-c6ccccc6OC(F)(F)F)noc5C(C)C)(CC3)CC4)n2)cc1 [Example 35]
2. COC(=O)c1ccc(-c2noc(C34CCC(COCc5c(-c6ccccc6OC(F)(F)F)noc5C5CC5)(CC3)CC4)n2)cc1 [Example 155]
3. O=C(O)C1CC1c1noc(C23CCC(OCc4c(-c5c(Cl)cccc5Cl)noc4C4CC4)(CC2)CC3)n1 (stereo not shown) [Example 266]

1. 5.62
2. 5.60
3. 6.14

Each of the following entries comes with a recorded value; kindly state pEC50 for each.
1. O=C(O)c1cc(F)c2nc(C34CCC(OCc5c(-c6c(Cl)cncc6Cl)noc5C5CC5)(CC3)CC4)sc2c1 [Example 231]
2. CC(C)Oc1cc(C(=O)O)nc2ccc(OCC34CCC(/C=C/c5c(-c6c(Cl)cncc6Cl)noc5C5CC5)(CC3)CO4)cc12 [Example 501]
3. COc1ccc(-c2nc(C34CCC(OCc5c(-c6c(Cl)cncc6Cl)noc5C5CC5)(CC3)CC4)c[nH]2)cc1C(=O)O [Example 259]
4. O=C(O)c1ccc2nc(C34CCC(OCc5c(-c6c(Cl)cccc6Cl)noc5C5CC5)(CC3)CC4)ncc2c1 [Example 24]
5. O=C(O)c1ccc(OCC23CCC(OCc4c(-c5c(Cl)cncc5Cl)noc4C4CC4)(CC2)CC3)cn1 [Example 319]
6. O=C(O)c1cccc(C23CCC(COCc4c(-c5ccccc5OC(F)(F)F)noc4C4CC4)(CC2)CO3)c1 [Example 204]
7. COc1ccc(-c2nc(C34CCC(OCc5c(-c6c(Cl)cncc6Cl)noc5C5CC5)(CC3)CC4)no2)cc1C(=O)O [Example 234]
8. Cn1cc(C#CC23CCC(OCc4c(-c5c(Cl)cncc5Cl)noc4C4CC4)(CC2)CC3)c2ccc(C(=O)O)cc21 [Example 399]

1: 7.28; 2: 7.27; 3: 5.26; 4: 6.60; 5: 6.57; 6: 6.36; 7: 6.72; 8: 7.08

Could you report pEC50 for every entry in the following list?
1. COc1cc(OCC23CCC(OCc4c(-c5c(Cl)cncc5Cl)noc4C4CC4)(CC2)CC3)cc(C(=O)O)c1 [Example 321]
2. O=C(O)c1ccc2[nH]c(C34CCC(OCc5c(-c6c(Cl)cccc6Cl)noc5C5CC5)(CC3)CC4)nc2c1 [Example 17]
3. O=C(O)c1cc(C#CC23CCC(OCc4c(-c5c(Cl)cncc5Cl)noc4C4CC4)(CC2)CC3)cc2[nH]ncc12 [Example 411]
4. O=C(O)c1ccc2nc(C34CCC(OCc5c(-c6c(Cl)cccc6Cl)noc5C5CC5)(CC3)CC4)ccc2n1 [Example 136]
5. CN(C)c1cc(-c2noc(C34CCC(OCc5c(-c6c(Cl)cncc6Cl)noc5C5CC5)(CC3)CC4)n2)cc(C(=O)O)n1 [Example 262]
6. O=C(O)c1cccc2c1CN(C(=O)C13CCC(OCc4c(-c5c(Cl)cccc5Cl)noc4C4CC4)(CC1)CC3)CC2 [Example 146]
7. COc1cc(-c2noc(C34CCC(OCc5c(-c6c(Cl)cnn6C)noc5C5CC5)(CC3)CC4)n2)cc(C(=O)O)n1 [Example 275]

1: 8.15; 2: 5.57; 3: 7.05; 4: 7.44; 5: 7.28; 6: 5.51; 7: 5.60
